- test target: recombinant human DPP7 (Homo sapiens, UniProt Q9UHL4)
- Construct: purchased R&D Systems
- run description: DPP7 inhibition, fluorogenic substrate Lys-Pro-AMC
- Type: biochemical
measured endpoint: IC50 (nM)

molecule: N#C[C@@H]1C[C@H](F)CN1C(=O)CN1CCC(Nc2cc(F)cc3ncccc23)CC1 [Example 132]
IC50, nM: 492
//
molecule: N#C[C@@H]1CCCN1C(=O)CN1CC[C@H](Nc2ccnc3ccccc23)C1 [Example 5]
IC50, nM: 294
//
molecule: CN(c1ccc2cccnc2c1)[C@H]1CCN(CC(=O)N2CCC[C@H]2C#N)C1 [Example 146]
IC50, nM: 916
//
molecule: N#C[C@@H]1CC(F)(F)CN1C(=O)CN1CC[C@H](Oc2ccnc3c(C(F)(F)F)cccc23)C1 [Example 104]
IC50, nM: 83.4
//
molecule: N#C[C@@H]1C[C@H](F)CN1C(=O)CN1CCC(Oc2ccnc3ccc(F)cc23)CC1 [Example 126]
IC50, nM: 10400
//
molecule: N#C[C@@H]1CCCN1C(=O)CN1CC[C@H](Nc2cccc3sccc23)C1 [Example 20]
IC50, nM: 2120

P. N#C[C@@H]1CCCN1C(=O)CN1CC[C@H](Oc2cccc3ncccc23)C1 [Example 66]
Q. N#C[C@@H]1CCCN1C(=O)CN1CCC(Oc2ccnc3ccccc23)CC1 [Example 118]
Task: Which gives the smaller IC50 number: P or Q ? Identify your selection by its label.
Result: P

a. N#C[C@@H]1CC(F)(F)CN1C(=O)CN1CC[C@H](Nc2ccc(-c3ccccc3)cc2)C1 [Example 14]
b. N#C[C@@H]1CC(F)(F)CN1C(=O)CN1CC[C@H](Oc2ccnc3cc(Cl)ccc23)C1 [Example 107]
c. N#C[C@@H]1CC(F)(F)CN1C(=O)CN1CC[C@H](Oc2ccc(Cl)c3cccnc23)C1 [Example 109]
d. N#C[C@@H]1CCCN1C(=O)CN1CCC(Nc2cccc3ncccc23)CC1 [Example 110]
Task: # rank_down: sort by IC50, max first The reply should contain the labels ordered as requested.
Result: d, a, c, b

* * *

- test target: UniProtKB P27487
- Sequence (P27487 whole entry): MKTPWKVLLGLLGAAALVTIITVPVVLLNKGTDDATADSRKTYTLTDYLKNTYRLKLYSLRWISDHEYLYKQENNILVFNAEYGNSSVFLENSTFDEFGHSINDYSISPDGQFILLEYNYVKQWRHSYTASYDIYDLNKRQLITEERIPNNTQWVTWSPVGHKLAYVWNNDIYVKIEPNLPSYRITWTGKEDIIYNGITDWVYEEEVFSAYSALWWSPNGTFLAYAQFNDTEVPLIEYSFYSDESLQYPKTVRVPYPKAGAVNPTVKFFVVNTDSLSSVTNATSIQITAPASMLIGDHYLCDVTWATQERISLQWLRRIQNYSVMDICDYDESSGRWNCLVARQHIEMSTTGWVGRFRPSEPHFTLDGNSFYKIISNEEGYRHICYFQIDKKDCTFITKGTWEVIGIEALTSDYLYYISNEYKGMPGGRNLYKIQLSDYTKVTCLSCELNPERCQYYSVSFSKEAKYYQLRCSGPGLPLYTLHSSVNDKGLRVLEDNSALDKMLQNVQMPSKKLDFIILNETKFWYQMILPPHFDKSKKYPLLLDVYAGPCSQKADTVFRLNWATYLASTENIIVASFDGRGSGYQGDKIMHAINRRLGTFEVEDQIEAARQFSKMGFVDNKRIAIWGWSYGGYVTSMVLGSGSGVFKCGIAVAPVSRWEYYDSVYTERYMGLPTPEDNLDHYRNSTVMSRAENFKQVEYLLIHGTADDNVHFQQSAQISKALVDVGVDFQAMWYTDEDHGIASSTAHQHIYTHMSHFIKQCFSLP
- run description: DPP4 inhibition, fluorogenic substrate H-Gly-Pro-AMC
- Assay type: biochemical
- Design: purchased R&D Systems
- recorded conditions: 25° C., H-Gly-Pro-AMC substrate
pIC50: −log10 of the molar value.
Catalogue of pIC50 values

Example entries begin here.
smiles notation: COc1ccc(NC2CCN(CC(=O)N3C[C@@H](F)C[C@H]3C#N)CC2)c2cccnc12
pIC50: 5.38
//
smiles notation: N#C[C@@H]1CC(F)(F)CN1C(=O)CN1CC[C@H](Oc2cccc3ncccc23)C1
pIC50: < 6.00
//
smiles notation: N#C[C@@H]1CCCN1C(=O)CN1CC[C@H](NC(=O)c2coc3ccccc23)C1
pIC50: < 6.00
//
smiles notation: N#C[C@@H]1CC(F)(F)CN1C(=O)CN1CC[C@H](Nc2cnc3ccccc3c2)C1
pIC50: < 6.00
//
smiles notation: N#C[C@@H]1CCCN1C(=O)CN1CC[C@H](Oc2ccc(Cl)c3cccnc23)C1
pIC50: < 6.00

Task: Report pIC50 for N#C[C@@H]1CCCN1C(=O)CN1CC[C@H](Nc2ccnc3ccccc23)C1 please.
Result: < 6.00

Task: Report pIC50 for Cc1ccc2ncccc2c1NC1CCN(CC(=O)N2CCC[C@H]2C#N)CC1 please.
Result: < 5.00

Task: Report pIC50 for N#C[C@@H]1CCCN1C(=O)CN1CC[C@H](Oc2ncnc3sccc23)C1 please.
Result: < 6.00

* * *

- test target: Recombinant human FAP (Homo sapiens)
- Construct: purchased R&D systems
- Sequence (Q12884 1-760): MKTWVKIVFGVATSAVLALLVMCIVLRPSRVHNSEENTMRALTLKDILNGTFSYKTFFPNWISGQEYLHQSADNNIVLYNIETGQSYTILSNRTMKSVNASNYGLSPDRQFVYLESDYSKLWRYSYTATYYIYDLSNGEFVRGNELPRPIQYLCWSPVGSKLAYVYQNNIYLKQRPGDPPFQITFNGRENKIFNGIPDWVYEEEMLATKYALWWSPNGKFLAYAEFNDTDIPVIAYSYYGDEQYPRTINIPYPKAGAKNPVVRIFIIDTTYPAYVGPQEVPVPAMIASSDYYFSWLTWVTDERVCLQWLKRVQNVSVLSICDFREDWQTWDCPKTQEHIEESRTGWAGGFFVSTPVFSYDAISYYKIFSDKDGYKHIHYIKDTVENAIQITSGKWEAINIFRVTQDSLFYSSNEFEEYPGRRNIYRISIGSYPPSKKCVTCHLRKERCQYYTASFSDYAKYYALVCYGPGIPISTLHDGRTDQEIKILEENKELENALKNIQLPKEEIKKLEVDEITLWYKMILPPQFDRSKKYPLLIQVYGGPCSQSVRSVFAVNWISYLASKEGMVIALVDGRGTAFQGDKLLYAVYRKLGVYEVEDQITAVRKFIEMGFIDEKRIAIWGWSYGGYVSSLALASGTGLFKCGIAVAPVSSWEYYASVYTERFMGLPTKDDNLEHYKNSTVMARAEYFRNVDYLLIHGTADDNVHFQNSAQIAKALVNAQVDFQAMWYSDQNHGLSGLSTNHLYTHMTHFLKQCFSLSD
- run description: FAP FRET assay, FGF21-sequence FRET peptide substrate
- Format: biochemical
- recorded conditions: FRET peptide with human FGF21 sequence, 6 μM, 37° C.
pIC50: −log10 of the molar value.
measured endpoint: pIC50

Example entries begin here.
smiles notation: N#C[C@@H]1CCCN1C(=O)CN1CC[C@H](Nc2ccc(C(=O)Nc3ccncc3)c3ncccc23)C1
pIC50: 8.36
--
smiles notation: N#C[C@@H]1CCCN1C(=O)CN1CC[C@@H](Nc2cccc3ncc(F)cc23)C1
pIC50: 8.77
--
smiles notation: N#C[C@@H]1C[C@H](F)CN1C(=O)CN1CC[C@@H](Nc2cc(F)cc3ncccc23)C1
pIC50: 8.59

A. CN(C(=O)c1ccc(NC2CCN(CC(=O)N3CCC[C@H]3C#N)CC2)c2cccnc12)c1ccccc1
B. N#C[C@@H]1C[C@H](F)CN1C(=O)CN1CCC(Nc2cnc3nc(Cl)ccc3c2)CC1
Task: Which gives the smaller pIC50 number: A or B ? Identify your selection by its label.
Result: A
(A: 7.01, B: 7.21)

* * *

- test target: recombinant human DPP9 (Homo sapiens)
- Construct: purchased R&D Systems
- Sequence (Q86TI2 whole entry): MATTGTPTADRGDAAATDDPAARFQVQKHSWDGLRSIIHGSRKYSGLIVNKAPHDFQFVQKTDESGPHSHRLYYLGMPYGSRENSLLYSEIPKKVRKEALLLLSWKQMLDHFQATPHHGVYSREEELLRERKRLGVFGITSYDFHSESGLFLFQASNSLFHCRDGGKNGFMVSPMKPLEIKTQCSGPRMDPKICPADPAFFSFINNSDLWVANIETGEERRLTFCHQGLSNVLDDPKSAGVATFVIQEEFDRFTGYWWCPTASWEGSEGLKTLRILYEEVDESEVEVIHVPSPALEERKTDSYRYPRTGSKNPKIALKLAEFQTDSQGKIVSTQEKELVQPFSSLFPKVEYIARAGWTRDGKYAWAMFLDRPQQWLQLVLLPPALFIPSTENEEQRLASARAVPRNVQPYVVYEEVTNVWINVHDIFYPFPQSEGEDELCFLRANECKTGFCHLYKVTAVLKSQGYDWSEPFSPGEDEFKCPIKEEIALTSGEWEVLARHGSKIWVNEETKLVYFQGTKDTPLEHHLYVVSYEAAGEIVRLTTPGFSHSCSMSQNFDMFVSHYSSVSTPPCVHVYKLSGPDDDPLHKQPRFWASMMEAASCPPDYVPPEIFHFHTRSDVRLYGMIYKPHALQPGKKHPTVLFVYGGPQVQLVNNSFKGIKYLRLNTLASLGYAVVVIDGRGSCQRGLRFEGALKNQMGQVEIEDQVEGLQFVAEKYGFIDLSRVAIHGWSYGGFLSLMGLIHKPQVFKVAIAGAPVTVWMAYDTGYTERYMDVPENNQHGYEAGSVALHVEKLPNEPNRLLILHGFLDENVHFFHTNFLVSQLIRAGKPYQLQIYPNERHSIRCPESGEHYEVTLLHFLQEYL
- run description: DPP9 inhibition, fluorogenic substrate H-Gly-Pro-AMC
- Type: biochemical
- recorded conditions: recombinant human DPP9
pIC50: −log10 of the molar value.
measured endpoint: pIC50

smiles notation: N#C[C@@H]1C[C@H](F)CN1C(=O)CN1CC[C@H](Nc2cc(Cl)c3ncccc3c2)C1
test target: recombinant human DPP9 (Homo sapiens)
measured endpoint: pIC50
value measured: 6.21

I. N#C[C@@H]1C[C@H](F)CN1C(=O)CN1CCC(Nc2ccc(C(=O)Nc3cccnc3)c3ncccc23)CC1
II. N#C[C@@H]1C[C@H](F)CN1C(=O)CN1CCC(Nc2ccc(C(=O)Nc3ccccc3)c3ncccc23)CC1
Task: Which value of pIC50 is numerically greater: that of I or that of II ? Identify your selection by its label.
Result: I
(I: 6.40, II: 5.96)

* * *

- test target: recombinant human DPP8 (Homo sapiens)
- Construct: purchased PBS Bioscience
- Sequence (Q6V1X1 whole entry): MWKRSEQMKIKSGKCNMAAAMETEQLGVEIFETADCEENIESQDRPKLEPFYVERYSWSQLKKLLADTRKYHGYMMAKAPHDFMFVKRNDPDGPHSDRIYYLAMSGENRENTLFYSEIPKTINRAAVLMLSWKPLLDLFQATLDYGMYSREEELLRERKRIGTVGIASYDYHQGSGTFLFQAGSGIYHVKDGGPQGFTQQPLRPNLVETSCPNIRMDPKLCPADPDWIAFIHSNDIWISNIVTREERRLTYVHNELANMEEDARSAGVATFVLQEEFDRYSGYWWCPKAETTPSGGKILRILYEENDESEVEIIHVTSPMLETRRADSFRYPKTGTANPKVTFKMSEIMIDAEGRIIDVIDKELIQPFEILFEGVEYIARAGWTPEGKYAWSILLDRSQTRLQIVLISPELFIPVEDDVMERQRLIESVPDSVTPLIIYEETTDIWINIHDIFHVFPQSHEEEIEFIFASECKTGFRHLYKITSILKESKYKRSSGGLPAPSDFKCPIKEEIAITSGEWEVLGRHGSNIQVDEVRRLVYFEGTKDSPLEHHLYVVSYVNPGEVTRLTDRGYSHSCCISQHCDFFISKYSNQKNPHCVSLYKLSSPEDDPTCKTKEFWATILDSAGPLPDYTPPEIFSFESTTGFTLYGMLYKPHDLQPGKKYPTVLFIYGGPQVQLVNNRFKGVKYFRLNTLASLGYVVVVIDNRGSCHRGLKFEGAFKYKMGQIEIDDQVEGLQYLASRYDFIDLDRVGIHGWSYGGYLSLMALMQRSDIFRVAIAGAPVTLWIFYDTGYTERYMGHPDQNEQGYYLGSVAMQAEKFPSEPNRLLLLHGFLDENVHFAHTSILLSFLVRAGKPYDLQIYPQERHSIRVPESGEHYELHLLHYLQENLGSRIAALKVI
- run description: DPP8 inhibition, fluorogenic substrate Z-Ala-Pro-AMC
- Assay type: biochemical
- recorded conditions: 25° C., Z-Ala-Pro-AMC substrate
pIC50: −log10 of the molar value.
measured endpoint: pIC50

Example entries begin here.
molecule: N#C[C@@H]1CCCN1C(=O)CN1CCC(Oc2ccnc3ccccc23)CC1 [Example 118]
pIC50: 4.07
--
molecule: N#C[C@@H]1CC(F)(F)CN1C(=O)CN1CC[C@H](Nc2cccc3ccoc23)C1 [Example 11]
pIC50: 6.64
--
molecule: COc1cc(NC2CCN(CC(=O)N3C[C@@H](F)C[C@H]3C#N)CC2)c2cccnc2c1 [Example 133]
pIC50: 5.19
--
molecule: COc1cc2nccc(OC3CCN(CC(=O)N4C[C@@H](F)C[C@H]4C#N)CC3)c2cc1OC [Example 130]
pIC50: 4.98
--
molecule: N#C[C@@H]1CCCN1C(=O)CN1CCC(Nc2ccnc3ccccc23)CC1 [Example 111]
pIC50: 4.50

I. N#C[C@@H]1CCCN1C(=O)CN1CC[C@H](NC(=O)c2coc3ccccc23)C1 [Example 37]
II. N#C[C@@H]1CC(F)(F)CN1C(=O)CN1CC[C@H](Nc2cnc3ccccc3c2)C1 [Example 6]
Task: Which value of pIC50 is numerically greater: that of I or that of II ? Identify your selection by its label.
Result: II

1. CN(c1cccc2cnccc12)[C@H]1CCN(CC(=O)N2CCC[C@H]2C#N)C1 [Example 148]
2. N#C[C@@H]1CC(F)(F)CN1C(=O)CN1CC[C@H](Oc2ccc(Cl)c3cccnc23)C1 [Example 109]
3. N#C[C@@H]1CC(F)(F)CN1C(=O)CN1CC[C@H](Nc2cccc3sccc23)C1 [Example 9]
4. N#C[C@@H]1C[C@H](F)CN1C(=O)CN1CC[C@H](Nc2cncc3ccoc23)C1 [Example 28]
Task: I would appreciate it if you could sort these 4 molecules by pIC50, starting from the smallest number. The reply should contain the labels ordered as requested.
Result: 1, 4, 2, 3
